Just for reference, patent US20160257697A1 is where these values come from.

Measured IC50 values are reported for all entries that follow.
System: HCV replicon 1AY93H
Assay: microbe, parasite or virus in culture
Type: cell-based, Hepatitis C virus (HCV)
Settings: read-out: 1A Y93H IC50; replicon 1AY93H; Replicon Assay A
Output spec: scalar in pM, unitless text.

compound | unit-tag | meas-value
COC(=O)NC(C(=O)N1CCC[C@H]1c1ncc(-c2ccc3c(c2)cc2n3C(c3ccc(F)s3)Oc3cc(-c4cnc([C@@H]5CCCN5C(=O)[C@@H](NC(=O)OC)C(C)C)[nH]4)cc(F)c3-2)[nH]1)C1C[C@@H](C)O[C@@H](C)C1 (single isomer, unassigned) [Compound 348] | pM | 14.9

Reading of IC50 for COC(=O)NC(C(=O)N1CCC[C@H]1c1ncc(-c2cc(F)c3c(c2)OC(c2ccc(C4CC4)s2)n2c-3cc3cc(-c4cnc([C@@H]5CCCN5C(=O)C(NC(=O)OC)C(C)(C)F)[nH]4)ccc32)[nH]1)C(C)(C)F (single isomer, unassigned) [Compound 110] with HCV replicon 1AY93H: 1970
